Each item that follows carries a reported melting point.

# smiles-input, melting point
rows = [
    ("Cc1cn2cc(-c3cc4ccc(N5CCN(C6CCC6)CC5)cc4oc3=O)nc2c(C)n1", "260 to 262 °C"),
    ("CN1CCN(c2cc(F)c3cc(-c4nc5c(F)cccc5o4)c(=O)oc3c2)CC1", "256 to 260 °C"),
]

"Cc1cn2cc(-c3cc4ccc(N5C[C@@H]6CCCN[C@@H]6C5)cc4oc3=O)nc2c(C)n1" yielded melting point of 246 to 253 °C

"C[C@@H]1CN(c2ccc3cc(-c4cn5ccncc5n4)c(=O)oc3c2)C[C@H](C)N1" yielded melting point of 248 to 250 °C

"CCN1CCN(c2ccc3cc(-c4cn5cc(C)ccc5n4)c(=O)oc3c2)CC1" yielded melting point of 266 to 269 °C

---

Each item that follows carries a reported melting point.

# smiles-input, readout-label, result
measured = [
    ("Cc1cn2cc(-c3cc4ccc(N5CCN6CCC[C@@H]6C5)cc4oc3=O)cc2c(C)n1", "melting point", "170 to 173 °C"),
]

"Cc1cn2cc(-c3cc4ccc(N5CCCNCC5)cc4oc3=O)nc2c(C(F)(F)F)n1" yielded melting point of > 300 °C

"Cc1cn2cc(-c3cc4ccc(N5CCC(NC(CO)CO)CC5)cc4oc3=O)nc2c(C)n1" yielded melting point of 251 to 256 °C

"Cc1cn2cc(-c3cc4ccc(N5CCN[C@@H](C)C5)cc4oc3=O)cc2cn1" yielded melting point of 202 to 204 °C

"COc1cccn2cc(-c3cc4ccc(N5C[C@@H](C)N[C@@H](C)C5)cc4oc3=O)nc12" yielded melting point of 184 to 186 °C

"COc1ccc(-c2cc3c(F)cc(N4CCNCC4)cc3oc2=O)cc1OC" yielded melting point of 240 °C (dec.)

"COc1ccn2cc(-c3cc4ccc(N5CCN(C)CC5)cc4oc3=O)nc2c1" yielded melting point of 251 to 259 °C

"Cc1cc(F)c2nc(-c3cc4ccc(N5CCN(C)[C@H](C)C5)cc4oc3=O)cn2c1" yielded melting point of 269 to 277 °C

"Cc1cn2cc(-c3cc4ccc(N5CCCNCC5)cc4oc3=O)nc2s1" yielded melting point of 188 to 191 °C

"Cc1ccc2nc(-c3cc4ccc(N5C[C@@H](C)N[C@@H](C)C5)cc4oc3=O)cn2n1" yielded melting point of 225 to 227 °C

"COc1cc(OC)cc(-c2cc3ccc(N4CCCNCC4)cc3oc2=O)c1" yielded melting point of 238 to 240 °C

"Cc1cn2cc(-c3cc4ccc(N5C[C@@H]6CCN(C)[C@@H]6C5)cc4oc3=O)nc2c(C)n1" yielded melting point of 252 to 262 °C

"Cc1cn2cc(-c3cc4ccc(CCCNCc5ccccn5)cc4oc3=O)nc2c(C)n1" yielded melting point of 177 to 180 °C

"Cc1cn2cc(-c3cc4c(F)cc(N5CCCN(C)CC5)cc4oc3=O)nc2cn1" yielded melting point of 210 to 212 °C

---

Each item that follows carries a reported melting point.

# compound, melting point
rows = [
    ("Cc1cn2cc(-c3cc4ccc(NC5CCNCC5)cc4oc3=O)nc2c(C)n1 [Compound 562]", "255 to 261 °C"),
    ("Cc1nccn2cc(-c3cc4ccc(N5CCN[C@H](C)C5)cc4oc3=O)cc12 [Compound 586]", "212 to 215 °C"),
    ("O=c1oc2cc(N3CCCNCC3)ccc2cc1-c1nc(C(F)(F)F)cs1 [Compound 237]", "200 °C"),
    ("Cc1cn2cc(-c3cc4ccc(N[C@@H]5CCN(CCO)C5)cc4oc3=O)nc2c(C)n1 [Compound 732]", "211 to 219 °C"),
    ("Cc1cn2cc(-c3cc4ccc(OCCN(C)C)cc4oc3=O)nc2c(C)n1 [Cpd 876]", "251 to 253 °C"),
]

CCN(CC)CCOc1ccc2cc(-c3cn4cc(C)nc(C)c4n3)c(=O)oc2c1 [Compound 895] yielded melting point of 175 to 177 °C

Cc1cn2cc(-c3cc4ccc(Cn5ccnc5)cc4oc3=O)nc2c(C)n1 [Compound 851] yielded melting point of 286 to 292 °C

COc1ccc(-c2cc3ccc(N4CCN[C@H](C)C4)cc3oc2=O)cc1OC [Compound 382] yielded melting point of 143 to 145 °C

---

readout-label: melting point

Study these solved cases before continuing.
# smiles-input, result
data = [
    ("Cc1cn2cc(-c3cc4ccc(N5C[C@H](O)[C@@H](N(C)C)C5)cc4oc3=O)nc2c(C)n1", "270 to 272 °C"),
    ("Cc1cn2cc(-c3cc4ccc(N5CCN(CCCO)[C@@H](C)C5)cc4oc3=O)nc2c(C)n1", "187 to 190 °C"),
    ("CN(C)[C@H]1CCN(c2ccc3cc(-c4cn5cccc(Cl)c5n4)c(=O)oc3c2)C1", "238 to 241 °C"),
]

Now examine the next entry.
"Cc1cc2cc(-c3cc4ccc(N5CCN(CCO)CC5)cc4oc3=O)oc2c(C)n1" yielded melting point of 203 to 205 °C

---

Each item that follows carries a reported melting point.

# molecule, melting point
records = [
    ("O=c1oc2cc(N3CCNCC3)ccc2cc1-c1ccnc(Cl)c1 [Compound 180]", "190 to 192 °C"),
    ("C[C@H]1CN(c2ccc3cc(-c4ccc5c(c4)OCCO5)c(=O)oc3c2)CCN1 [Compound 513]", "196 to 198 °C"),
    ("Cc1nccn2cc(-c3cc4ccc(N5CCN[C@@H](C)C5)cc4oc3=O)cc12 [Compound 566]", "184 to 186 °C"),
    ("Cc1cn2cc(-c3cc4ccc(C5CCN(CCCF)CC5)cc4oc3=O)nc2c(C)n1 [Compound 906]", "195 to 200 °C"),
    ("Cc1ccc2nc(-c3cc4cc(F)c(N5CCNCC5)cc4oc3=O)cn2c1 [Compound 158]", "245 to 250 °C"),
    ("Cl.O=c1oc2cc(N3CCNCC3)ccc2cc1-c1nc2c(C(F)(F)F)cccc2o1", "339 to 341 °C"),
]

Cc1cn2cc(-c3cc4c(F)cc(N5CCCNCC5)cc4oc3=O)nc2cn1 [Compound 550] yielded melting point of 270 to 274 °C

Cc1cn2cc(-c3cc4ccc(CCCCN5CCC[C@@H]5CO)cc4oc3=O)nc2c(C)n1 [Compound 904] yielded melting point of 147 to 151 °C

CN1CCCN(c2ccc3cc(-c4nc(C(F)(F)F)cs4)c(=O)oc3c2)CC1 [Compound 238] yielded melting point of 218 to 225 °C

---

Each item that follows carries a reported melting point.
Counter-ions that a name gives are not always drawn.

# compound, melting point
rows = [
    ("Cc1cn2cc(-c3cc4ccc(O[C@@H]5CCNC5)cc4oc3=O)nc2s1.Cl.Cl [Compound 325]", "230 to 235 °C"),
    ("O=c1oc2cc(N3CCNCC3)ccc2cc1-c1nc2ccccc2s1 (as salt: hydrochloride) [Cpd 4]", "250 °C (dec.)"),
    ("CCN(CC)Cc1ccc2cc(-c3nc4c(Cl)cccc4s3)c(=O)oc2c1 [Compound 58]", "147 to 151 °C"),
    ("C[C@H]1CN(c2ccc3cc(-c4cn5cccc(F)c5n4)c(=O)oc3c2)CCN1 [Compound 525]", "190 to 193 °C"),
    ("Cc1cn2cc(-c3cc4ccc(N5C[C@H]6CCN(C)[C@H]6C5)cc4oc3=O)cc2c(C)n1 [Compound 755]", "196 to 198 °C"),
]

Cc1nc(Cl)cn2cc(-c3cc4ccc(N5CCN[C@H](C)C5)cc4oc3=O)nc12 [Compound 699] yielded melting point of 265 to 268 °C

COc1ccc(-c2cc3c(F)cc(N4CCN[C@H](C)C4)cc3oc2=O)cc1OC [Compound 416] yielded melting point of 115 to 117 °C

O=c1oc2cc(N3CCNCC3)ccc2cc1-c1cc2ccccn2c1 [Cpd 529] yielded melting point of 186 to 188 °C

Cl.O=c1oc2cc(N3CCNCC3)ccc2cc1-c1nc2cc(F)ccc2o1 [Compound 19] yielded melting point of 320 to 325 °C

Cc1cn2cc(-c3cc4ccc(OC[C@H]5CCCN5)cc4oc3=O)nc2c(C)n1 [Cpd 948] yielded melting point of 172 to 174 °C

Cc1cn2cc(-c3cc4ccc(N5CCNCC5)cc4oc3=O)cc2c(C)n1 [Compound 670] yielded melting point of 186 to 189 °C

---

readout-label: melting point

Study these solved cases before continuing.
# molecule, melting point
rows = [
    ("CC(C)NCc1ccc2cc(-c3nc4ccccc4s3)c(=O)oc2c1 [Compound 8]", "164 to 168 °C"),
    ("COc1ccc(-c2cc3ccc(N4CCN[C@@H](C)C4)cc3oc2=O)cc1C [Compound 542]", "127 to 131 °C"),
    ("Cc1cn2cc(-c3cc4ccc(N5CCN[C@H](C)C5)cc4oc3=O)nc2s1 [Compound 231]", "178 to 181 °C"),
    ("Cc1nn2cc(-c3cc4ccc(N5CCN[C@H](C)C5)cc4oc3=O)nc2s1 [Compound 483]", "206 to 210 °C"),
    ("Cc1cn2cc(-c3cc4ccc(N[C@@H]5CCNC5)cc4oc3=O)nc2c(C)n1 [Compound 564]", "290 to 300 °C"),
]

Now examine the next entry.
Cc1cn2cc(-c3cc4ccc(N5C[C@@H]6CCN(C)[C@@H]6C5)cc4oc3=O)cc2c(C)n1 [Compound 729] yielded melting point of 173 to 175 °C
